Recorded Average of the Light/Dark ratio, Dox 75 ng/mL values for a group of binders are listed next.
Molecular target: Cry2 PHR (L348F)-p65AD-NLSx2 fusion construct as released from the TetR (I194T, 1-206)-CIB1 (-NLS)-T2A-Cry2 PHR (L348F)-p65AD-NLSx2 fusion construct
Sequence (Q96524 other isoform, or with tags, fused parts or gaps L348F I194T L348F L348F I194T L348F): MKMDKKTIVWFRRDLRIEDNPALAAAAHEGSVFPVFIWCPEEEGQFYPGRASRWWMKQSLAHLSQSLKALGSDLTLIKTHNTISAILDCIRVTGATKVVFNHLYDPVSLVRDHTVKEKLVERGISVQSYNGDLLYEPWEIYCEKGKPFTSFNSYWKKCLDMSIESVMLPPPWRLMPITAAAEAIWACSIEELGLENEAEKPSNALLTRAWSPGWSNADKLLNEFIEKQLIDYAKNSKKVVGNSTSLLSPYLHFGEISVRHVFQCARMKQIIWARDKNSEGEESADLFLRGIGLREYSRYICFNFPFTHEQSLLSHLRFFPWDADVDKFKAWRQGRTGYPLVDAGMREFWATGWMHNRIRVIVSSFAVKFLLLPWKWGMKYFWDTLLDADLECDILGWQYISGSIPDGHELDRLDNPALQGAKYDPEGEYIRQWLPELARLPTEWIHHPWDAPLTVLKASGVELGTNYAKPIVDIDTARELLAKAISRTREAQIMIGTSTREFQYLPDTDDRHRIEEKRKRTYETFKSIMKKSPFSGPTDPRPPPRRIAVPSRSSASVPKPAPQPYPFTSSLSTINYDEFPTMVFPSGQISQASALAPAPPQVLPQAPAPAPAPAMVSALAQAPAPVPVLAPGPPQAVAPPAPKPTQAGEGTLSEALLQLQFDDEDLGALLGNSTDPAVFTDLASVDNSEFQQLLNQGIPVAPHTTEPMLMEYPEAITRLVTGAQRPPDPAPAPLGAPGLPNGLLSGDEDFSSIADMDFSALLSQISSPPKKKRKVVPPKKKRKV
Assay: cell-based or functional assay
Keep it simple and answer with nothing but the number.

Use these answered entries as a reference point.
binder | reading
rTetR (I194T, S2 mutation, 1-206)-CIB1 (-NLS) from the T2A construct (protein, part only; not given: Leftover T2A residues, part only) chain, part: MARLDKSKVINSALELLNGVGIEGLTTRKLAQKLGVEQPTLYWHVKNKRALLDALPIEMLDRHHTHFCPLEGESWQDFLRNNAKSFRCALLSHRDGAKVHLGTRPTEKQYETLENQLAFLCQQGFSLENALYALSAVGHFTLGCVLEEQEHQVAKEERETPTTDSMPPLLRQAIELFDRQGAEPAFLFGLELITCGLEKQLKCESGSPKKKHMEFNGAIGGDLLLNFPDMSVLERQRAHLKYLNPTFDSPLAGFFADSSMITGGEMDSYLSTAGLNLPMMYGETTVEGDSRLSISPETTLGTGNFKAAKFDTETKDCNEAAKKMTMNRDDLVEEGEEEKSKITEQNNGSTKSIKKMKHKAKKEENNFSNDSSKVTKELEKTDYI | 17
TetR (I194T, 1-206)-CIB1 (-NLS) fusion construct as released from the TetR (I194T, 1-206)-CIB1 (-NLS)-T2A-Cry2 PHR (L348F)-p65AD-NLSx2 fusion construct (protein, part only, residual T2A residues at C-terminus) MARLDKSKVINSALELLNEVGIEGLTTRKLAQKLGVEQPTLYWHVKNKRALLDALAIEMLDRHHTHFCPLEGESWQDFLRNNAKSFRCALLSHRDGAKVHLGTRPTEKQYETLENQLAFLCQQGFSLENALYALSAVGHFTLGCVLEDQEHQVAKEERETPTTDSMPPLLRQAIELFDHQGAEPAFLFGLELITCGLEKQLKCESGSPKKKHMEFNGAIGGDLLLNFPDMSVLERQRAHLKYLNPTFDSPLAGFFADSSMITGGEMDSYLSTAGLNLPMMYGETTVEGDSRLSISPETTLGTGNFKAAKFDTETKDCNEAAKKMTMNRDDLVEEGEEEKSKITEQNNGSTKSIKKMKHKAKKEENNFSNDSSKVTKELEKTDYI | 1.1
rTetR (I194T, M2 mutation, 1-206)-CIB1 (-NLS) from the T2A construct (protein, part only; not given: Leftover T2A residues, part only) chain, part: MARLDKSKVINGALELLNGVGIEGLTTRKLAQKLGVEQPTLYWHVKNKRALLDALPIEMLDRHHTHFCPLEGESWQDFLRNNAKSFRCALLSHRDGAKVHLGTRPTEKQYETLENQLAFLCQQGFSLENALYALSAVGHFTLGCVLEEQEHQVAKEERETPTTDSMPPLLRQAIELFDRQGAEPAFLFGLELITCGLEKQLKCESGSPKKKHMEFNGAIGGDLLLNFPDMSVLERQRAHLKYLNPTFDSPLAGFFADSSMITGGEMDSYLSTAGLNLPMMYGETTVEGDSRLSISPETTLGTGNFKAAKFDTETKDCNEAAKKMTMNRDDLVEEGEEEKSKITEQNNGSTKSIKKMKHKAKKEENNFSNDSSKVTKELEKTDYI | 31.6

Turning to the following binder.
[ask] What value of Average of the Light/Dark ratio, Dox 75 ng/mL has been reported for the following binder? rTetR (I194T, V16 mutation, 1-206)-CIB1 (-NLS) from the T2A construct (protein, part only; not given: Leftover T2A residues, part only) chain, part: MARLDKSKIINSALELLNGVGIEGLTTRKLAQKLGVEQPTLYWHVKNKRALLDALPIEMLDRHHTHSCPLEGESWQDFLRNNAKSYRCALLSHRDGAKVHLGTRPTEKQYETLENQLAFLCQQGFSLENALYALSAVGHFTLGCVLEEQEHQVAKEERETPTTDSMPPLLKQAIELFDRQGAEPAFLFGLELITCGLEKQLKCESGSPKKKHMEFNGAIGGDLLLNFPDMSVLERQRAHLKYLNPTFDSPLAGFFADSSMITGGEMDSYLSTAGLNLPMMYGETTVEGDSRLSISPETTLGTGNFKAAKFDTETKDCNEAAKKMTMNRDDLVEEGEEEKSKITEQNNGSTKSIKKMKHKAKKEENNFSNDSSKVTKELEKTDYI
[reply] 15.8
